Target: NADPH--cytochrome P450 reductase (Homo sapiens, UniProt P16435)
Sequence (P16435 whole entry): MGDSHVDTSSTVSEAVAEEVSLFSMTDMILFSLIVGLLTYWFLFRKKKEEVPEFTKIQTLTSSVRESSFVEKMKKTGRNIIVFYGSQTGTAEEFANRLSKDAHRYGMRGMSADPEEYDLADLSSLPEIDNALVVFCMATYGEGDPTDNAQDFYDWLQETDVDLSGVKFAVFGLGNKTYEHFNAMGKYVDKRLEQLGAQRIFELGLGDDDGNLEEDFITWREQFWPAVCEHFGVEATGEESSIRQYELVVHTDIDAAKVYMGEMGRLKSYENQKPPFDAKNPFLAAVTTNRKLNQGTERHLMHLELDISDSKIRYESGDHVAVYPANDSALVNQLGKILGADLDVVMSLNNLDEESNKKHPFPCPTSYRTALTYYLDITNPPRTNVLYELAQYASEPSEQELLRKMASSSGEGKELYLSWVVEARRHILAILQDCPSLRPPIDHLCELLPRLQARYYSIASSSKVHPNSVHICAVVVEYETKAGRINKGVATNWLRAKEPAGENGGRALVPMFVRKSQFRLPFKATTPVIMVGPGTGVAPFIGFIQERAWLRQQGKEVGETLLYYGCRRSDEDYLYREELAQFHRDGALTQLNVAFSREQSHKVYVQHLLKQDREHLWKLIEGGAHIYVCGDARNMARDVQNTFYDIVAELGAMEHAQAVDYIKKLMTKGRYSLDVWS
Test: Activity of human recombinant cytochrome P450 reductase assessed as rate of superoxide generation measuring SOD-inhibitable reduction of succinoylated cytochrome c per 2 mU enzyme at 100 umol/ml by spectrophotometry in presence of catalase and DTPA (reference value: 0.2 +/- 0.1 micomol/L/min)
Note to self: values exactly at 2 µmol/L/min are fulfilled. So Activity at or above 2 µmol/L/min is fulfilled, below is not fulfilled.

{"smiles": "Cc1cc2c(o1)C(=O)c1ccccc1C2=O", "assigned label": "not fulfilled"}
{"smiles": "CCc1noc(-c2cc3c(o2)C(=O)c2ccccc2C3=O)n1", "assigned label": "not fulfilled"}
{"smiles": "O=C1c2ccccc2C(=O)c2occc21", "assigned label": "fulfilled"}
{"smiles": "CC(=O)c1cc2c(o1)C(=O)c1ccccc1C2=O", "assigned label": "fulfilled"}
{"smiles": "CC1=CC(=O)c2ccccc2C1=O", "assigned label": "fulfilled"}
